Please provide measured IC50 for the entries that follow.
# System: 786-0 complex spheroids with HUVEC/MSC, growth % test/control
# method: Anticancer human tumor 786-0 cell line growth inhibition [AhR];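 further: compound exposure lasted seven days before the read-out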
# measurement_context: curve of first compound; second compound 10 µM

Some solved cases for reference:
# compound, assayed_target, IC50
data = [
    ("CCN(c1cc(-c2ccc(CN3CCOCC3)cc2)cc(C(=O)NCc2c(C)cc(C)[nH]c2=O)c1C)C1CCOCC1 + Cc1ccccc1N=Nc1ccc(NC(=O)c2ccnn2C)c(C)c1", "786-0 complex spheroids with HUVEC/MSC, growth % test/control", "> 3000 nM"),
    ("Nc1ccn(C2OC(CO)C(O)C2(F)F)c(=O)n1 (stereo not drawn) + Cc1ccccc1N=Nc1ccc(NC(=O)c2ccnn2C)c(C)c1", "786-0 complex spheroids with HUVEC/MSC, growth % test/control", "< 31.6 nM"),
]

Fill in the recorded IC50 for this compound, with 786-0 complex spheroids with HUVEC/MSC, growth % test/control as test system: Cn1ncnc1C1c2n[nH]c(=O)c3cc(F)cc(c23)NC1c1ccc(F)cc1 (stereo not drawn) + Cc1ccccc1N=Nc1ccc(NC(=O)c2ccnn2C)c(C)c1
> 100 nM

---

# System: 786-0 complex spheroids with HUVEC/MSC, growth % test/control
# method: Anticancer human tumor 786-0 cell line growth inhibition [AhR];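 further: compound exposure lasted seven days before the read-out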
# measurement_context: curve of first compound; second compound 1 µM
Please provide measured IC50 for the entries that follow.

Some solved cases for reference:
# molecule, assayed_target, IC50
measured = [
    ("Nc1ncn(C2CC(O)C(CO)S2)c(=O)n1 (centres undefined) + CC(CO)NC(=O)c1cc(-c2ccc(Cl)cc2)nn(-c2cnn(C)c2)c1=O", "786-0 complex spheroids with HUVEC/MSC, growth % test/control", "> 0.3 µM"),
    ("O=C(c1cc(Cc2n[nH]c(=O)c3ccccc23)ccc1F)N1CCN(C(=O)C2CC2)CC1 + CC(CO)NC(=O)c1cc(-c2ccc(Cl)cc2)nn(-c2cnn(C)c2)c1=O", "786-0 complex spheroids with HUVEC/MSC, growth % test/control", "> 10 µM"),
    ("O=C(c1cc(Cc2n[nH]c(=O)c3ccccc23)ccc1F)N1CCN(C(=O)C2CC2)CC1 + Cc1ccccc1N=Nc1ccc(NC(=O)c2ccnn2C)c(C)c1", "786-0 complex spheroids with HUVEC/MSC, growth % test/control", "> 10 µM"),
    ("Nc1ncn(C2CC(O)C(CO)S2)c(=O)n1 (centres undefined) + Cc1ccccc1N=Nc1ccc(NC(=O)c2ccnn2C)c(C)c1", "786-0 complex spheroids with HUVEC/MSC, growth % test/control", "> 0.3 µM"),
    ("COc1ccc([C@@H](O)c2cc(-c3ncnc4cc(N5CCOCC5)ccc34)c(F)cc2Cl)nn1 + Cc1ccccc1N=Nc1ccc(NC(=O)c2ccnn2C)c(C)c1", "786-0 complex spheroids with HUVEC/MSC, growth % test/control", "> 10 µM"),
    ("Nc1ncn(C2CC(O)C(CO)O2)c(=O)n1 (centres undefined) + CC(CO)NC(=O)c1cc(-c2ccc(Cl)cc2)nn(-c2cnn(C)c2)c1=O", "786-0 complex spheroids with HUVEC/MSC, growth % test/control", "> 1 µM"),
]

Could you tell me IC50 for each of these molecules? They are listed below.
1. CC1(C)CCC(CN2CCN(c3ccc(C(=O)NS(=O)(=O)c4ccc(NCC5CCOCC5)c([N+](=O)[O-])c4)c(Oc4cnc5[nH]ccc5c4)c3)CC2)=C(c2ccc(Cl)cc2)C1 + Cc1ccccc1N=Nc1ccc(NC(=O)c2ccnn2C)c(C)c1
2. Cn1ncnc1C1c2n[nH]c(=O)c3cc(F)cc(c23)NC1c1ccc(F)cc1 (centres undefined) + Cc1ccccc1N=Nc1ccc(NC(=O)c2ccnn2C)c(C)c1
3. CCN(c1cc(-c2ccc(CN3CCOCC3)cc2)cc(C(=O)NCc2c(C)cc(C)[nH]c2=O)c1C)C1CCOCC1 + CC(CO)NC(=O)c1cc(-c2ccc(Cl)cc2)nn(-c2cnn(C)c2)c1=O

1. > 10 µM
2. > 0.1 µM
3. > 3 µM

---

# Test system: 786-0 complex spheroids with HUVEC/MSC, growth % test/control
# method: Anticancer human tumor 786-0 cell line growth inhibition [AhR]; active means viability on the fitted dose curve at most 10% of control; inactive means the rest;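 further: compound exposure lasted seven days before the read-out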
# measurement_context: second compound 0.1 µM; first compound 10 µM
Select the correct class. Options are T for active, F for inactive and nothing else.

Would you please look over these solved cases?
# molecule, class_name
data = [
    ("CC(C)c1c(-c2ccccc2)nc2c(C#N)c[nH]n2c1=O + CC(CO)NC(=O)c1cc(-c2ccc(Cl)cc2)nn(-c2cnn(C)c2)c1=O", "F"),
    ("NS(=O)(=O)OCC1CC(n2ccc3c(NC4CCc5ccccc54)ncnc32)CC1O (stereo not given) + CC(CO)NC(=O)c1cc(-c2ccc(Cl)cc2)nn(-c2cnn(C)c2)c1=O", "T"),
    ("COc1ccc([C@@H](O)c2cc(-c3ncnc4cc(N5CCOCC5)ccc34)c(F)cc2Cl)nn1 + Cc1cncc(-c2nc(NCCc3c[nH]c4ccccc34)c3ncn(C(C)C)c3n2)c1", "F"),
]

// param item: CC1COCCN1c1cc(C2(S(C)(=N)=O)CC2)nc(-c2ccnc3[nH]ccc23)n1 (stereo not given) + Cc1ccccc1N=Nc1ccc(NC(=O)c2ccnn2C)c(C)c1 ; yields the recorded call
F

Now try CC1(C)CCC(CN2CCN(c3ccc(C(=O)NS(=O)(=O)c4ccc(NCC5CCOCC5)c([N+](=O)[O-])c4)c(Oc4cnc5[nH]ccc5c4)c3)CC2)=C(c2ccc(Cl)cc2)C1 + CC(CO)NC(=O)c1cc(-c2ccc(Cl)cc2)nn(-c2cnn(C)c2)c1=O .
F

---

# Tested on: 786-0 complex spheroids with HUVEC/MSC, growth % test/control
# method: Anticancer human tumor 786-0 cell line growth inhibition [AhR];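 further: compound exposure lasted seven days before the read-out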
# measurement_context: curve of first compound; second compound 3.16 µM
pIC50: −log10 of the molar value.
Please provide measured pIC50 for the entries that follow.

Some solved cases for reference:
# molecule, measured_value
measured = [
    ("Nc1ncn(C2CC(O)C(CO)O2)c(=O)n1 (stereo not given) + CC(CO)NC(=O)c1cc(-c2ccc(Cl)cc2)nn(-c2cnn(C)c2)c1=O", "< 6.00"),
    ("CC1(C)CCC(CN2CCN(c3ccc(C(=O)NS(=O)(=O)c4ccc(NCC5CCOCC5)c([N+](=O)[O-])c4)c(Oc4cnc5[nH]ccc5c4)c3)CC2)=C(c2ccc(Cl)cc2)C1 + CC(CO)NC(=O)c1cc(-c2ccc(Cl)cc2)nn(-c2cnn(C)c2)c1=O", "< 5.00"),
    ("COc1cccc2c1C(=O)c1c(O)c3c(c(O)c1C2=O)CC(O)(C(=O)CO)CC3OC1CC(N)C(O)C(C)O1 (stereo not given) + CC(CO)NC(=O)c1cc(-c2ccc(Cl)cc2)nn(-c2cnn(C)c2)c1=O", "> 7.50"),
    ("Nc1ccn(C2OC(CO)C(O)C2(F)F)c(=O)n1 (stereo not given) + Cc1ccccc1N=Nc1ccc(NC(=O)c2ccnn2C)c(C)c1", "> 7.50"),
]

I would be grateful if you could share the reported pIC50 for O=C(c1cc(Cc2n[nH]c(=O)c3ccccc23)ccc1F)N1CCN(C(=O)C2CC2)CC1 + Cc1cncc(-c2nc(NCCc3c[nH]c4ccccc34)c3ncn(C(C)C)c3n2)c1 .
< 5.00

---

Please provide measured viability, T/C for the entries that follow.
# System: 786-0 complex spheroids with HUVEC/MSC, growth % test/control
# method: Anticancer human tumor 786-0 cell line growth inhibition [AhR];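 further: compound exposure lasted seven days before the read-out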
# measurement_context: second compound 0.1 µM; first compound 10 µM; stronger effect = lower value
Give bare numbers, in %.

# molecule, assayed_target, viability, T/C [%]
rows = [
    ("O=C(C=Cc1cccc(S(=O)(=O)Nc2ccccc2)c1)NO + Cc1cncc(-c2nc(NCCc3c[nH]c4ccccc34)c3ncn(C(C)C)c3n2)c1", "786-0 complex spheroids with HUVEC/MSC, growth % test/control", 26.5),
    ("COc1ccc([C@@H](O)c2cc(-c3ncnc4cc(N5CCOCC5)ccc34)c(F)cc2Cl)nn1 + Cc1ccccc1N=Nc1ccc(NC(=O)c2ccnn2C)c(C)c1", "786-0 complex spheroids with HUVEC/MSC, growth % test/control", 79.9),
    ("COc1cc(C2c3cc4c(cc3C(OC3OC5COC(C)OC5C(O)C3O)C3COC(=O)C23)OCO4)cc(OC)c1O (centres undefined) + Cc1cncc(-c2nc(NCCc3c[nH]c4ccccc34)c3ncn(C(C)C)c3n2)c1", "786-0 complex spheroids with HUVEC/MSC, growth % test/control", 9.86),
    ("COc1cccc2c1C(=O)c1c(O)c3c(c(O)c1C2=O)CC(O)(C(=O)CO)CC3OC1CC(N)C(O)C(C)O1 (centres undefined) + CC(CO)NC(=O)c1cc(-c2ccc(Cl)cc2)nn(-c2cnn(C)c2)c1=O", "786-0 complex spheroids with HUVEC/MSC, growth % test/control", 0.56),
]

Could you tell me viability, T/C for each of these molecules? They are listed below.
1. COc1cc(Nc2ncc3c(n2)-c2ccc(Cl)cc2C(c2c(F)cccc2OC)=NC3)ccc1C(=O)O + Cc1cncc(-c2nc(NCCc3c[nH]c4ccccc34)c3ncn(C(C)C)c3n2)c1
2. Nc1ccn(C2OC(CO)C(O)C2(F)F)c(=O)n1 (centres undefined) + Cc1cncc(-c2nc(NCCc3c[nH]c4ccccc34)c3ncn(C(C)C)c3n2)c1
3. O=C(c1cc(Cc2n[nH]c(=O)c3ccccc23)ccc1F)N1CCN(C(=O)C2CC2)CC1 + Cc1ccccc1N=Nc1ccc(NC(=O)c2ccnn2C)c(C)c1
4. O=C(C=Cc1cccc(S(=O)(=O)Nc2ccccc2)c1)NO + CC(CO)NC(=O)c1cc(-c2ccc(Cl)cc2)nn(-c2cnn(C)c2)c1=O
5. CC(C)c1c(-c2ccccc2)nc2c(C#N)c[nH]n2c1=O + Cc1ccccc1N=Nc1ccc(NC(=O)c2ccnn2C)c(C)c1

[38.2, 7.97, 104, 15.2, 99]

This collection of values is drawn from PubChem BioAssay AID1919003.
